- Tested on: SNB-75 CNS
- test method notes: NCI-60 one-dose screen, 48 h
- study conditions: 10 µM unless noted
This is part of a sample that, as a whole, favours compounds with a hit. Of some 83,000 tested, about 20% had one in any assay. Activity calls are given as the source filed them. How the source made its calls: active means growth percent below 10; inactive means the rest.
Assign a class; possible classes are active, inactive

Short answer needed: outcome of this test for COC1=CC(c2ccc[nH]2)=N/C1=C\c1[nH]c(C)c(CC(=O)OCc2ccccc2)c1CCC(=O)OCc1ccccc1 ?
active

So what was the verdict on CNC(=O)c1[nH]cc(-c2ccc(OC)cc2)c1-c1cc(OC)c2c(c1OC)OCO2 in this test?
inactive

Outcome logged for COc1cc2nc3cc([N+](=O)[O-])ccc3c(NCCNCC(C)O)c2cc1OC (stereo not given) in this assay:
active

For Cc1ccc(-c2nc(N3CCCNCC3)c3oc(-c4ccc(C)cc4)nc3n2)cc1 , which call appears in the assay record?
inactive

Please let me know the test result on file for CCSC(SCC)c1ccc(Cl)cc1 .
inactive

What did the test return for [O-]/[N+](=C\c1ccc(-n2cc(Cc3ccccc3Cc3cn(-c4ccc(/C=[N+](/[O-])c5ccccc5)cc4)nn3)nn2)cc1)c1ccccc1 ?
inactive

Per the assay record, what outcome was assigned to N#Cc1c(-c2ccc(Cl)cc2)c(C#N)c2c(C#N)c(N)nn2c1N ?
inactive

Field: outcome | Entry: NC(=O)c1ccc(-c2c3ccccc3cc3c2ccc2ccccc23)cc1
inactive

Record lookup: outcome of this test for CCOc1ccccc1Cn1ccnc1CCc1c(Cl)c(O)cc(O)c1C(=O)OC ?
inactive

Given O=C(Nc1ccc(Oc2cccc(Cl)c2)c(Cl)c1)c1cnccn1 , state the outcome it received in this test.
active
